PROTOCOL_DESCRIPTION: qHTS assay for small molecule activators of the p53 signaling pathway (AID 651743); also: series mostly up to about 92 µM; % of control where 0% means no effect
ASSAY_CONDITIONS: HCT-116 p53RE-bla, beta-lactamase FRET ratio, 16 h; stronger effect = higher value
Results filed as inconclusive are left out.
The reader will find reported activation values listed item by item below.
ENDPOINT_LABEL: activation (%)

{"columns": ["MOLECULE", "ASSAY_VALUE"],
 "data": [
  ["NCCN", 3.88],
  ["Oc1cccc(O)c1O", 2.6],
  ["Cc1ccc(S(=O)(=O)NCl)cc1", -0.574],
  ["OCl", -2.68],
  ["CC(C)(C)CC(C)(C)c1ccc(OCCO)cc1", 9.34],
  ["Cc1ncc[nH]1", -3.81],
  ["[O-][N+](=Nc1ccccc1)c1ccccc1", 1.25],
  ["CO[C@@H]1[C@H](OC(=O)/C=C/C=C/C=C/C=C/C(=O)O)CC[C@]2(CO2)[C@H]1[C@@]1(C)O[C@@H]1CC=C(C)C", -4.17],
  ["C=CC(C)(O)CC/C=C(\\C)CCC=C(C)C (configuration not stated)", -1.4],
  ["Nc1nccs1", 2.07],
  ["NCCO/C=C/[C@H](N)C(=O)O", 7.75],
  ["CCCCC", 2.34]
]}
